Known GI50 of a selection of compounds
# Tested on: RXF 631
# PROTOCOL: NCI tumour cell line growth inhibition, 48 h
Activity calls are given as the source filed them. Rule as the data show it: active = GI50 up to about 1.1 µM and inactive = higher.

{"columns": ["COMPOUND", "GI50"],
 "data": [
  ["CCOC(=O)NC1C2CC(=O)OC(O2)C1OC(C)=O (stereo unspecified)", "> 100 µM (inactive)"],
  ["Cc1cc([N+](=O)[O-])ccc1NC(=O)C(=O)C(C(=O)c1ccccc1-c1ccccc1)C1OC(=O)c2ccccc21 (stereo unspecified)", "4.75 µM (inactive)"],
  ["COc1ccc(CC2NCCc3cc(OC)c(OC)cc32)cc1 (stereo unspecified)", "> 100 µM (inactive)"],
  ["CC(c1ccccc1)C(O)S(=O)(=O)O (stereo unspecified)", "> 100 µM (inactive)"],
  ["COc1ccc2cc3nc(O)cc(O)c3cc2c1OC", "> 100 µM (inactive)"],
  ["CCOC(=O)COc1cccc2c1C(=O)CCO2", "> 100 µM (inactive)"]
]}
